Ref: ChEMBL document CHEMBL1126297

Tested on: HT-29
Experiment: Cytotoxicity against human HT-29 colon cell line.
Assay type: functional
Settings: read-out: ED50 (the source's name)
Labelling: EC50 reported below 6000 nM becomes TRUE; at or above becomes FALSE.

• COc1cc2ccc3cccc(OC)c3c2c(OC)c1OC = TRUE
• COc1ccc(/C=C/c2ccc(OC)c(OC)c2)cc1 = FALSE
• COC(=O)/C(=C/c1cccc(OC)c1)c1cc(OC)c(OC)c(OC)c1 = TRUE
• COc1cc(/C=C\c2ccc(C)cc2)cc(OC)c1OC = TRUE
• COc1ccc(CC(C#N)c2cc(OC)c(OC)c(OC)c2)cc1 (stereo unspecified) = FALSE
• COc1cc(/C=C/c2ccc(C(C)C)cc2)cc(OC)c1OC = FALSE
• COc1ccc2c(c1)CN1CCc3c(cc(OC)c(OC)c3OC)C1C2 (stereo unspecified) = FALSE
• COc1ccc(/C=C\c2cc(OC)c(OC)c(OC)c2)cc1 = TRUE

Task: For this compound, is EC50 lower than 6000 nM? COc1ccc(C(Cc2cc(OC)c(OC)c(OC)c2)C(=O)O)cc1 (stereo unspecified)
Result: FALSE

Task: For CCc1ccc(/C=C\c2cc(OC)c(OC)c(OC)c2)cc1 , is the recorded EC50 below the cut-off of 6000 nM?
Result: TRUE

Task: Please let me know if CCCOc1ccc(CCc2cc(OC)c(OC)c(OC)c2)cc1 shows EC50 below 6000 nM.
Result: FALSE

Task: Quick check: does COc1ccc(/C=C\c2cc(OC)c(OCc3ccccc3)c(OC)c2)cc1 have EC50 under 6000 nM?
Result: TRUE

Task: Problem: For the compound COc1ccc2c(ccc3cc(OC)c(OC)c(OC)c32)c1 , is EC50 under 6000 nM?
Result: FALSE

Task: EC50 under 6000 nM? Item: COC(=O)/C(=C/c1ccc(OC)cc1)c1cc(OC)c(OC)c(OC)c1
Result: TRUE

Task: Determine whether this compound shows EC50 lower than 6000 nM (ties excluded): COc1ccc(C(C#N)Cc2cc(OC)c(OC)c(OC)c2)cc1 (stereo unspecified)
Result: FALSE

Task: Does this compound meet the criterion EC50 < 6000 nM? CCc1ccc(/C=C/c2cc(OC)c(OC)c(OC)c2)cc1
Result: TRUE

Task: For COc1cc(/C=C/c2ccc(C(C)(C)C)cc2)cc(OC)c1OC , is the recorded EC50 below the cut-off of 6000 nM?
Result: FALSE

Task: Problem: For the compound COc1ccc(/C=C\c2cc(OC)c(OC(C)=O)c(OC)c2)cc1 , is EC50 under 6000 nM?
Result: FALSE

Task: Hello, I'm reviewing records and need to know if EC50 of COc1cc(/C=C/c2ccc(SC)cc2)cc(OC)c1OC is below 6000 nM. Could you check?
Result: TRUE

Task: Item CCOc1ccc(/C=C/c2cc(OC)c(OC)c(OC)c2)cc1 : EC50 beneath 6000 nM, strictly?
Result: TRUE
